The measured values listed here are drawn from patent US20150087627A1.

biological target: PI3K γ (p110γ) (Homo sapiens, UniProt P48736); construct: purchased Upstate / Millipore Corporation; test: PI 3-Kinase (human) HTRF assay, PI3K γ; format: biochemical; conditions: read-out: PI3K γ IC50
Sequence (P48736 whole entry): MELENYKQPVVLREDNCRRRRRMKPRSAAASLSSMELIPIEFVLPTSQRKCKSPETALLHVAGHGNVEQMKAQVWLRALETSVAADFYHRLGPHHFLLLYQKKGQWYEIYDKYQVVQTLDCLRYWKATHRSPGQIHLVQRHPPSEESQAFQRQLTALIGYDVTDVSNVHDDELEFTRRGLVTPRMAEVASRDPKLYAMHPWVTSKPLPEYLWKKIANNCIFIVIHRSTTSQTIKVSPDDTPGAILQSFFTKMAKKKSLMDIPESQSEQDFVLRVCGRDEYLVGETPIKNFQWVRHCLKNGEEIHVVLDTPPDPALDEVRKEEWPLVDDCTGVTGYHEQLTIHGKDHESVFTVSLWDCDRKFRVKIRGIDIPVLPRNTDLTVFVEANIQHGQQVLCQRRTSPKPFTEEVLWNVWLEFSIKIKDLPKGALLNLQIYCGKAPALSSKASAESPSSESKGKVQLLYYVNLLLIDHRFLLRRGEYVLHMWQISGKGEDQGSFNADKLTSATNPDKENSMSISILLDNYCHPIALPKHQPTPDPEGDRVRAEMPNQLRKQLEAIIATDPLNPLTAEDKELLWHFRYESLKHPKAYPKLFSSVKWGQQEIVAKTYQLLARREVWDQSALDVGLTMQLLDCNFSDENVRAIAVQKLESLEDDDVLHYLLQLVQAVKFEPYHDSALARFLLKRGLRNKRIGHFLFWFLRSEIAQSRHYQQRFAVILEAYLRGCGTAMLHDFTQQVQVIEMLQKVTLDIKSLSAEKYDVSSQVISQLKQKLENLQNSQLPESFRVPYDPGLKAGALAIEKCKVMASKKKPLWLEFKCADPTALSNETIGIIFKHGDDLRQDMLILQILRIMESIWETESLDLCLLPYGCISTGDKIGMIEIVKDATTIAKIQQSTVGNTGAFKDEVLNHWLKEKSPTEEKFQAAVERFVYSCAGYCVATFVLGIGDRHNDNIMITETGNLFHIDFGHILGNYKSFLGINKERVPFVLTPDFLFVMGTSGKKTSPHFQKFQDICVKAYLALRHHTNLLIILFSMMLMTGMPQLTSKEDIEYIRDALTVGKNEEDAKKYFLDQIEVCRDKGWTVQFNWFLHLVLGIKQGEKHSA
reported property: IC50

>>> result("Cc1cc(-c2ccc3nc(N)oc3c2)cn2c(CN3CCN(C)CC3)nnc12 [Compound 549]")
"> 10000 nM"

Look up IC50 with PI3K γ (p110γ) (Homo sapiens, UniProt P48736) for this molecule: COC(=O)N1CCC(n2ncc3c(N4CCOCC4)nc(-c4ccc5oc(N)nc5c4)nc32)CC1 [Compound 330]
> 10000 nM

Subsequent entry: CNS(=O)(=O)c1cccc(-c2ccc3ncc(C(=O)N4CCOCC4)n3c2)c1 [Compound 442]
> 10000 nM

Subsequent entry: CN1CC(C(=O)N2CCN(c3cnc4ccc(-c5ccc6oc(N)nc6c5)cc4n3)CC2)C1 [Compound 156]
< 1000 nM

Subsequent entry: Nc1nc2cc(-c3ccc4ncc(N5CC(N6CCC(O)CC6)C5)nc4c3)ccc2o1 [Compound 341]
< 10000 nM

Subsequent entry: CC(C)N1CCN(C(=O)c2cnc3ccc(-c4ccc5oc(N)nc5c4)cn23)CC1 [Compound 160]
> 10000 nM

Subsequent entry: Nc1nc2cc(-c3ccc4ncc(N5CCC(N6CCOCC6)CC5)nc4c3)ccc2o1 [Compound 171]
< 1000 nM

Subsequent entry: COc1ncc(-c2ccc3ncn(C4CCN(C)CC4)c(=O)c3c2)cc1NS(=O)(=O)c1ccccc1 [Compound 524]
< 1000 nM

Subsequent entry: CC1CN(C(=O)c2cnc3ccc(-c4ccc5oc(N)nc5c4)cn23)CCN1 (stereo not shown) [Compound 164]
> 10000 nM

Subsequent entry: Nc1nc2cc(-c3ccc4ncc(C(=O)N5CC6CCC(C5)O6)n4c3)ccc2o1 [Compound 504]
< 100 nM

Subsequent entry: Cc1c(-c2ccc3ncc(N4CC(N5CCOCC5)C4)nc3c2)ccc2oc(N)nc12 [Compound 362]
> 10000 nM

Subsequent entry: Nc1nc2cc(-c3ccc4ncc(=O)[nH]c4c3)ccc2o1 [Compound 72]
< 100 nM

Subsequent entry: C[C@H]1CN(c2cnc3scc(-c4ccc5oc(N)nc5c4)c3c2)CCN1 [Compound 399]
> 10000 nM

Subsequent entry: CN1CCN(c2cnc3ccc(-c4ccc5sc(N)nc5c4)cc3n2)CC1 [Compound 127]
< 10000 nM

----------
target: PI3K α (p110α/p85α) (Homo sapiens, UniProt P42336); construct: purchased Upstate / Millipore Corporation; experiment: PI 3-Kinase (human) HTRF assay, PI3K α; format: biochemical; settings: Table 4 (PI3K α inhibitors); read-out: PI3K α IC50
Sequence (P42336 whole entry): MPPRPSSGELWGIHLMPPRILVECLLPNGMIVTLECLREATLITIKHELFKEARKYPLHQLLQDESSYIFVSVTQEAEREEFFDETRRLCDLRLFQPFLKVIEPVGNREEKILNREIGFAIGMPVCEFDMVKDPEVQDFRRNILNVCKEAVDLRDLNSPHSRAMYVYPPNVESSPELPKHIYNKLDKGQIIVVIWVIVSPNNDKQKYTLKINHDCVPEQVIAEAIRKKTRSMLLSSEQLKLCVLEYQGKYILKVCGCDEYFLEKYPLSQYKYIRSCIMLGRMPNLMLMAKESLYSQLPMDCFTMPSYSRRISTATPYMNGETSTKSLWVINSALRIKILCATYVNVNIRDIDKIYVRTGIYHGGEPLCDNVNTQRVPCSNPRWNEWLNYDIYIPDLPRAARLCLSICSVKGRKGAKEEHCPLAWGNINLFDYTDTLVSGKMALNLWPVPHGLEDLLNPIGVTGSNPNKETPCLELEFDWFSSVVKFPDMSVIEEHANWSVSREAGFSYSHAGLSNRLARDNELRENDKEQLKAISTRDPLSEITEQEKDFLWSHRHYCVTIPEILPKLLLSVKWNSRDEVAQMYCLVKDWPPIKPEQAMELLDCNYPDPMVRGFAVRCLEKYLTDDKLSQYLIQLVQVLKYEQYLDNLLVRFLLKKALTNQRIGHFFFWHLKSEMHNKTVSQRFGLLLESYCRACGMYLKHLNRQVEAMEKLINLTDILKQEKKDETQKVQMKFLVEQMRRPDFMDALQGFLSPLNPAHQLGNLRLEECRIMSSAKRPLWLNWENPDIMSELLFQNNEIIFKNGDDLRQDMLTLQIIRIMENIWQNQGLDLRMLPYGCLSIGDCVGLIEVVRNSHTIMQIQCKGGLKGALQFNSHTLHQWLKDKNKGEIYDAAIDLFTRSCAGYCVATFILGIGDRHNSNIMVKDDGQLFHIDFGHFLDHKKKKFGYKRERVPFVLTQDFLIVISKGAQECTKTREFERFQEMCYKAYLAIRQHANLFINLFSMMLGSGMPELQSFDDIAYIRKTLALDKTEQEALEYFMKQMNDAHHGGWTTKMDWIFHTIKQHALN
Sequence (P27986 whole entry partner): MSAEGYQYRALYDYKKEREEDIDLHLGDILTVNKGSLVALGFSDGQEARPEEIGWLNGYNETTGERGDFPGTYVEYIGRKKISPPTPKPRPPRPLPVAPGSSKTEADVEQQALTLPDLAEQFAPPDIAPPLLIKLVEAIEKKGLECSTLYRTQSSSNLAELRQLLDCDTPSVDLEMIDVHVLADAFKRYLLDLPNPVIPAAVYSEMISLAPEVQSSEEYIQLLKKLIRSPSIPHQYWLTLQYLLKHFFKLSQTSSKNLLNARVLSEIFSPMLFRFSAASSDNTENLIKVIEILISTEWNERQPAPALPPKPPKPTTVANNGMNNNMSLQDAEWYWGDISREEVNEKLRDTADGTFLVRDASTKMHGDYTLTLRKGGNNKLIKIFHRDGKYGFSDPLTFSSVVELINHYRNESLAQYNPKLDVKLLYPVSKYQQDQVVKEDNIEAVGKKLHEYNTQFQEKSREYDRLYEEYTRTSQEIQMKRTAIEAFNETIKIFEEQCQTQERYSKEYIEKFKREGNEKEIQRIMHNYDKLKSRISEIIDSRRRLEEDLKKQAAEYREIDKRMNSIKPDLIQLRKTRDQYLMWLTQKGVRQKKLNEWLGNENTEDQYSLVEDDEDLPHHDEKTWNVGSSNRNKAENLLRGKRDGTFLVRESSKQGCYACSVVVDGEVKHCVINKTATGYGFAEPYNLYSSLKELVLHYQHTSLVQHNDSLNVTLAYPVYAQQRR
reported property: IC50

Here is how some compounds turned out for IC50.
>>> result("CCOC(=O)N1CCN(c2cnc3ccc(-c4ccc5oc(N)nc5c4)nc3c2)CC1 [Compound 587]")
"< 0.1 µM"
>>> result("Nc1nc2cc(-c3ccc4ncc(N5CC(N6CCN(C7CC7)CC6)C5)nc4n3)ccc2o1 [Compound 620]")
"< 0.1 µM"
>>> result("C[C@@H]1CN(C2CN(c3cnc4ccc(-c5ccc6oc(N)nc6c5)nc4c3)C2)CCN1 [Compound 607]")
"< 0.1 µM"
>>> result("CC1(C)CN(C2CN(c3cnc4ccc(-c5ccc6oc(N)nc6c5)nc4n3)C2)CCO1 [Compound 568]")
"< 1 µM"
>>> result("Nc1nc2cc(-c3ccc4ncc(N5CC(N6CCNCC6)C5)nc4n3)ccc2o1 [Compound 585]")
"< 1 µM"

Name the recorded IC50 for Nc1nc2cc(-c3ccc4ncc(N5CC(N6CCN(CCO)CC6)C5)nc4n3)ccc2o1 [Compound 597] .
< 0.1 µM

Subsequent entry: CN1CCN(C2CN(c3cnc4ccc(-c5ccc6oc(N)nc6c5)nc4c3)C2)CC1=O [Compound 615]
< 0.1 µM

Subsequent entry: CN1CCN(c2cnc3ccc(-c4ccc5oc(N)nc5c4)nc3c2)CC1 [Compound 575]
< 0.1 µM
